The values you see were collected from paper PMC6583924.

Target: (h)V1a (Homo sapiens)
Assay: In vitro V1a binding assay
Settings: structure-activity discussion of Tables 1 and 2
Assay readout: V1a binding affinity (in words)

>>> print(df.to_string())
                                   compound        target_of_assay                    assay_readout                 result
0  Cc1ccccc1-c1ccc(C(=O)N2CC3(C)CC2CC(C)(C)C3)cc1 (centres unmarked) [8g]  (h)V1a (Homo sapiens)  V1a binding affinity (in words)  good binding affinity
1  Cc1ccccc1-c1ccc(C(=O)N2CC3(C)CC2CC(C)(C)C3)c(F)c1 (centres unmarked) [8k]  (h)V1a (Homo sapiens)  V1a binding affinity (in words)  good binding affinity

----------
Documented inhibition at 0.01 µM across a set of compounds
Biological target: (h)V1a (Homo sapiens, UniProt P37288)
Sequence (P37288 whole entry): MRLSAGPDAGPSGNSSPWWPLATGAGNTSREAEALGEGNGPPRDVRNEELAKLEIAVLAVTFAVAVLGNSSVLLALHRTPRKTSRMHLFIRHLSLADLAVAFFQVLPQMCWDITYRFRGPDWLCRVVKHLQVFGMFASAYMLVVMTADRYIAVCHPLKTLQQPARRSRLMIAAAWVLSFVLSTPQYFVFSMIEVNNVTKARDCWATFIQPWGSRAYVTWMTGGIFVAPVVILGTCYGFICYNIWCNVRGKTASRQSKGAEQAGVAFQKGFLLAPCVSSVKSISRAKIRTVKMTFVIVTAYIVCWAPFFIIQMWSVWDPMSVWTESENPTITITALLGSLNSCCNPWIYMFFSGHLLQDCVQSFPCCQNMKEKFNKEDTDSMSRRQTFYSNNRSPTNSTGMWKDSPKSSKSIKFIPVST
Test: In vitro V1a binding assay
Conditions: read-out: % Binding inhibition (10^−8M)
Assay readout: inhibition at 0.01 µM (%)

>>> print(df.to_string())
                                   compound                        target_of_assay  readout_number
0  COc1cc(C(=O)N2CC3(C)CC2CC(C)(C)C3)ccc1-c1c[nH]c2ncccc12 (stereo not drawn) [8d]  (h)V1a (Homo sapiens, UniProt P37288)            28.7
1  COc1cc(C(=O)N2CC3(C)CC2CC(C)(C)C3)ccc1-c1cn(C)c2ccccc12 (stereo not drawn) [8c]  (h)V1a (Homo sapiens, UniProt P37288)            18.7
2  Cc1cnccc1-c1ccc(C(=O)N2CC3(C)CC2CC(C)(C)C3)cc1 (stereo not drawn) [8h]  (h)V1a (Homo sapiens, UniProt P37288)            28.9
3  Cc1ccncc1-c1ccc(C(=O)N2CC3(C)CC2CC(C)(C)C3)c(F)c1 (stereo not drawn) [8l]  (h)V1a (Homo sapiens, UniProt P37288)            19.8
4  Cc1ncccc1-c1ccc(C(=O)N2CC3(C)CC2CC(C)(C)C3)cc1 (stereo not drawn) [8j]  (h)V1a (Homo sapiens, UniProt P37288)            18.2
5  COc1cc(C(=O)N2C[C@]3(C)C[C@H]2CC(C)(C)C3)ccc1-c1c[nH]c2ccccc12 [(1S,5R)-1]  (h)V1a (Homo sapiens, UniProt P37288)            87.9
6  COc1cc(C(=O)N2CCC(F)(F)CC2)ccc1-c1c[nH]c2ccccc12 [13b]  (h)V1a (Homo sapiens, UniProt P37288)               9
7  Cc1ccncc1-c1ccc(C(=O)N2CC3(C)CC2CC(C)(C)C3)cc1 (stereo not drawn) [8i]  (h)V1a (Homo sapiens, UniProt P37288)            43.9
8  COc1cc(C(=O)N2CC3(C)CC2CC(C)(C)C3)ccc1-c1c[nH]c2cnccc12 (stereo not drawn) [8e]  (h)V1a (Homo sapiens, UniProt P37288)            44.2

----------
Test: Lipophilicity logD7,4
Assay type: physicochemical
Settings: pH 7.4
Overview of recorded logD for various molecules
Assay readout: logD

In [3]: df
Out[3]:
                                    molecule  result
 0  Cc1ccncc1-c1ccc(C(=O)N2CC3(C)CC2CC(C)(C)C3)c(F)c1 (centres unmarked) [8l]     4.5
 1  COc1cc(C(=O)N2CC3(C)CC2CC(C)(C)C3)ccc1-c1c[nH]c2ncccc12 (centres unmarked) [8d]     2.9
 2  COc1cc(C(=O)N2CCN(C)CC2)ccc1-c1c[nH]c2ccccc12 [13a]     0.7
 3  COc1cc(C(=O)N2CC3(C)CC2CC(C)(C)C3)ccc1-c1c[nH]c2cnccc12 (centres unmarked) [8e]     3.5
 4  Cc1ccccc1-c1ccc(C(=O)N2CC3(C)CC2CC(C)(C)C3)cc1 (centres unmarked) [8g]       5
 5  COc1cc(C(=O)N2CCCN(C)CC2)ccc1-c1c[nH]c2ccccc12 [13c]     0.2
 6  Cc1ccccc1-c1ccc(C(=O)N2CC3(C)CC2CC(C)(C)C3)c(F)c1 (centres unmarked) [8k]     5.8
 7  Cc1cnccc1-c1ccc(C(=O)N2CC3(C)CC2CC(C)(C)C3)cc1 (centres unmarked) [8h]     4.4
 8  COc1cc(C(=O)N2CC3(C)CC2CC(C)(C)C3)ccc1-c1cccnc1F (centres unmarked) [8b]       4
 9  COc1cc(C(=O)N2C[C@]3(C)C[C@H]2CC(C)(C)C3)ccc1-c1c[nH]c2ccccc12 [(1S,5R)-1]     4.7
10  CC1(C)CC2CC(C)(CN2C(=O)c2ccc(-c3c[nH]c4ccccc34)c(OCCF)c2)C1 (centres unmarked) [6c]     4.9
11  COc1cc(C(=O)NC23CC4CC(CC(C4)C2)C3)ccc1-c1c[nH]c2ccccc12 [13d]     5.8
12  COc1cc(C(=O)N2CCC(F)(F)CC2)ccc1-c1c[nH]c2ccccc12 [13b]     1.6
13  COc1cc(C(=O)N2CC3(C)CC2CC(C)(C)C3)ccc1-c1ccc(F)nc1 (centres unmarked) [8a]     3.9
14  COc1cc(C(=O)N2CC3(C)CC2CC(C)(C)C3)ccc1-c1c[nH]c2ccncc12 (centres unmarked) [8f]     2.8
15  CC1(C)CC2CC(C)(CN2C(=O)c2ccc(-c3c[nH]c4ccccc34)cc2F)C1 (centres unmarked) [6b]     4.8
16  COc1cc(C(=O)N2CC3(C)CC2CC(C)(C)C3)ccc1-c1cn(C)c2ccccc12 (centres unmarked) [8c]       6
17  Cc1ccncc1-c1ccc(C(=O)N2CC3(C)CC2CC(C)(C)C3)cc1 (centres unmarked) [8i]     4.4
18  COc1cc(C(=O)Nc2ccc(F)cc2)ccc1-c1c[nH]c2ccccc12 [13e]     3.2
19  Cc1ncccc1-c1ccc(C(=O)N2CC3(C)CC2CC(C)(C)C3)cc1 (centres unmarked) [8j]     4.4
